assay_method_text: Stability of the compounds: buffer hydrolysis (half-times, shelf-life)
Format: physicochemical
experimental_conditions: pH 7.4; buffer pH 7.40, ionic strength 0.5, 37°C; read-out: Half-times in buffers at 37°C, T½, pH 7.40 (converted)
Description: The stability of the test compounds were tested with buffer hydrolyses. The ionic strength (µ) of the buffers was 0.5, the pH-values used 4.2, 6.0, 7.4 and 9.0 and the temperatures used 37°C, 50 °C, 60 °C and 70 °C. […] From the degradation constant (k) obtained at the desired temperature the shelf-life-time t10% (t10% = 0.104/k) which indicates the time during which 10% of the drug has degraded may be calculated. […]
Items are presented alongside their recorded half-life.
Kindly answer with a numeric value in h, unit omitted.

INSERT INTO results (compound, assay_value) VALUES
  ('CC[C@H](C(=O)OCCCCCCCOC(=O)[C@@H](CC)[C@H](CO)Cc1cncn1C)[C@H](CO)Cc1cncn1C', 3.35);

query: Give the measured half-life of CC[C@H](C(=O)OCc1cccc(COC(=O)[C@@H](CC)[C@H](CO)Cc2cncn2C)c1)[C@H](CO)Cc1cncn1C .
result: 0.317

query: Could you share which half-life value was measured for CC[C@H](C(=O)OCCCCCOC(=O)[C@@H](CC)[C@H](CO)Cc1cncn1C)[C@H](CO)Cc1cncn1C ?
result: 2.08

query: Reported half-life, compound CC[C@H](C(=O)OCCCOC(=O)[C@@H](CC)[C@H](CO)Cc1cncn1C)[C@H](CO)Cc1cncn1C : ____
result: 1.2

query: GET /values?readout=half-life&item= CCCC(=O)OC[C@H](Cc1cncn1C)[C@H](CC)C(=O)OCc1ccc(COC(=O)[C@@H](CC)[C@H](COC(=O)CCC)Cc2cncn2C)cc1
result: 177

query: I am curious: what half-life value has been reported for CC[C@H](C(=O)OCc1ccccc1)[C@H](COC(=O)c1ccccc1)Cc1cncn1C [benzoyl, benzyl, reference compound] ?
result: 2040

From: patent EP0559700B1
